# assayed-system: adenosine A2A receptor (Homo sapiens (Human))
# Sequence (P29274 whole entry): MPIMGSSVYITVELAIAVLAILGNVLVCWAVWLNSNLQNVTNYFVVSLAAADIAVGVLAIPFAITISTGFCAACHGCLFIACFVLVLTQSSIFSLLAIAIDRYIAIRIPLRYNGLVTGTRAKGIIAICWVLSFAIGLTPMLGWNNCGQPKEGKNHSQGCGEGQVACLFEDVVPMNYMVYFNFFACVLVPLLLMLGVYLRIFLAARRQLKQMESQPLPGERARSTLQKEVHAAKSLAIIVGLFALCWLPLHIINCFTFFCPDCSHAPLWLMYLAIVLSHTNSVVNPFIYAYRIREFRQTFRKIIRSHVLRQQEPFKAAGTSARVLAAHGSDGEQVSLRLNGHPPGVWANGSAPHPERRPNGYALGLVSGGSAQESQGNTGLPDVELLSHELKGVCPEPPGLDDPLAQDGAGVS
# test-method-notes: Adenosine receptor activity assay (Table 1), A2A activity
# Type: biochemical
# conditions-used: cAMP; read-out: Ave A2A cAMP IC50
pIC50: −log10 of the molar value.
Below, each of the molecules is paired with its reported pIC50 value.

INSERT INTO assay_data (structure, value_observed) VALUES
  ('C[C@H](Nc1nc(C(=O)N2CC(NC(=O)c3cccc(Cl)c3)C2)c2sccc2n1)c1cncc(F)c1', '> 8.00'),
  ('C[C@H](Nc1nc(C(=O)N2CC(NC(=O)C3CCOCC3)C2)c2sccc2n1)c1cncc(F)c1', '7.30 to 8.00'),
  ('C[C@H](Nc1nc(C(=O)N2CC(NC(=O)C34CC(C3)C4)C2)c2sccc2n1)c1cncc(F)c1', '> 8.00'),
  ('C[C@H](Nc1nc(C(=O)N2CC(NC(=O)CCC3CCOCC3)C2)c2sccc2n1)c1cncc(F)c1', '7.30 to 8.00'),
  ('C[C@H](Nc1nc(C(=O)N2CC(NC(=O)c3ccoc3)C2)c2sccc2n1)c1cncc(F)c1', '7.30 to 8.00');

Query :: Notebook entry, adenosine A2A receptor (Homo sapiens (Human)) assay: pIC50 of C[C@H](Nc1nc(C(=O)N2CC(NC(=O)NC(C)(C)C)C2)c2sccc2n1)c1cncc(F)c1 = ?
Result :: > 8.00

Query :: Ok, now C[C@H](Nc1nc(C(=O)N2CC(NC(=O)c3ccc(-c4ccccc4)cc3)C2)c2sccc2n1)c1cncc(F)c1
Result :: 7.30 to 8.00
